Data credit: PubChem BioAssay (NCI)

System: A549 NSCLC
Test: NCI tumour cell line growth inhibition, 48 h
Provide the reported TGI of each item.

Dear colleague, please send me the reported TGI for `O=C/C(=C(/Cl)c1ccc(O)cc1)c1ccccc1` when you can. > 84.6 µM

Dear colleague, please send me the reported TGI for `Cc1c(S(=O)(=O)/N=C(\N)Nc2ccc(Cl)cc2)sc2ccc(Cl)cc12` when you can. 46.8 µM

Dear colleague, please send me the reported TGI for C[n+]1c2ccccc2cc2c(CNC(CCCN=C(N)N)C(=O)O)cccc21 (stereo not given) when you can. 14.6 µM

Please look at the items below and tell me TGI for each one, in order.
1. C=C1CC2(OC1=O)C(=O)N(CCCN1C(=O)C3(CC(=C)C(=O)O3)c3ccccc31)c1ccccc12 (stereo not given)
2. CN(C)Cc1c[nH]c2c(NCCN)c3c(c(NCCN)c12)C(=O)c1ccccc1C3=O

["24 µM", "16.2 µM"]

====

Tested on: SNB-19 CNS
Experiment: NCI tumour cell line growth inhibition, 48 h
Provide the reported TGI of each item.

Below: 5 molecules and their reported TGI.
Dear colleague, please send me the reported TGI for `O=S(=O)(O)c1cc2ccc1/C=C\c1ccc(cc1S(=O)(=O)O)N=Nc1ccc(c(S(=O)(=O)O)c1)/C=C\c1ccc(cc1S(=O)(=O)O)N=N2` when you can. > 100 µM

Dear colleague, please send me the reported TGI for O=C(O)CCC(NC(=S)S)C(=O)O.[Na+].[Zn+2] (stereo not drawn) when you can. > 50 µM

Dear colleague, please send me the reported TGI for `Cn1c(/C(C#N)=C/c2ccc3ccccc3c2)cc2ccccc21` when you can. > 100 µM

Dear colleague, please send me the reported TGI for CCCCC1c2c([nH]c3ccccc23)C2C(=O)N(c3ccc(OC)cc3)C(=O)C2C1CCC (stereo not drawn) when you can. > 10 µM

Dear colleague, please send me the reported TGI for N=S(c1ccccc1)c1ccccc1[N+](=O)[O-] (stereo not drawn) when you can. 35.2 µM

Please look at the items below and tell me TGI for each one, in order.
1. O=S1(=O)NCCCN1CCNc1nccc(-c2c(-c3cccc(O)c3)nc3sccn23)n1
2. CC(C)COP(=O)(OCC(C)C)C(NS(=O)(=O)c1ccccc1)(C(F)(F)F)C(F)(F)F
3. O=C(NC(Cc1ccc(I)cc1)C(=O)O)c1ccc(I)cc1 (stereo not drawn)

> 100 µM
54.1 µM
> 100 µM

Please look at the items below and tell me TGI for each one, in order.
1. O=C(NCCN1CCOCC1)c1ccc2cc(C(=O)N3CC(CCl)c4ccc([N+](=O)[O-])cc43)[nH]c2c1 (stereo not drawn)
2. COc1cccc(/C=C2\CCC(C)(CN(C)C)C2=O)c1 (stereo not drawn)

["28.8 µM", "> 100 µM"]

Please look at the items below and tell me TGI for each one, in order.
1. N#CCCN(CCC#N)c1ccc(/C=C2\N=C(c3ccccc3)N(c3ccc(Cl)cc3)C2=O)cc1
2. O=C1CN2C(c3ccccc3)=NN(c3ccc([N+](=O)[O-])cc3)C2(c2ccccc2)c2cc(Cl)ccc2N1CC1CC1 (stereo not drawn)
3. COc1cc2cnc3c4ccccc4ccc3c2cc1OC
4. Cc1csc(-c2cn(C)c3c2C(=O)C(N)=CC3=O)n1
5. Cn1cc(-c2csc(-c3cn(C)c4ccccc34)n2)c2cnccc21
6. CNC(SC)=C1C(=O)OC(C)(C)OC1=O
7. CC(CC(=O)Nc1ccc(NC(=O)CC(C)N=NC(N)=S)cc1)N=NC(N)=S (stereo not drawn)

> 100 µM
> 100 µM
> 100 µM
> 100 µM
3.28 µM
> 100 µM
> 100 µM

Dear colleague, please send me the reported TGI for `NC(N)=NS(=O)(=O)c1ccc(NC(=O)c2cccc3c(Nc4ccc(S(N)(=O)=O)cc4)c4ccccc4nc23)cc1` when you can. > 100 µM

====

Test system: BT-549 breast
Experiment: NCI tumour cell line growth inhibition, 48 h
Provide the reported TGI of each item.
Answers are plain numbers, in µM.

Dear colleague, please send me the reported TGI for `O=[N+]([O-])/C(C(Cl)=C(Cl)Cl)=C(\Nc1cccc2cccnc12)SCc1ccccc1` when you can. 35.6

Please look at the items below and tell me TGI for each one, in order.
1. COc1cc([N+](=O)[O-])c(OC)cc1-c1nc2sc(Cl)cn2c1/C=N/Nc1ccccn1
2. O=c1cc(N=P(c2ccccc2)(c2ccccc2)c2ccccc2)n(-c2ccccc2)c(=O)n1-c1ccccc1

1. 38.7
2. 95.6

====

Provide the reported TGI of each item.
Test system: OVCAR-5 ovarian
Assay: NCI tumour cell line growth inhibition, 48 h

Below: 4 molecules and their reported TGI.
Dear colleague, please send me the reported TGI for `CCCn1c(CN(Cc2nc3ccccc3n2CCC)Cc2nc3ccccc3n2CCC)nc2ccccc21` when you can. > 89.9 µM

Dear colleague, please send me the reported TGI for COc1nc(C#CCC(C)O)nc(OC)n1 (stereo not given) when you can. 33.3 µM

Dear colleague, please send me the reported TGI for `Clc1ccc(-c2nn3c(-c4ccncc4)nnc3s2)cc1` when you can. > 100 µM

Dear colleague, please send me the reported TGI for `CCOC(=O)/C(=C/c1cccc(OC)c1)N(CC)CC` when you can. > 100 µM

Shift focus to the following entry.
Dear colleague, please send me the reported TGI for `O=C(NC12CC3CC(CC(C3)C1)C2)C(=O)c1c[nH]c2ccc(Cl)cc12` when you can. > 100 µM

====

System: SK-MEL-28 melanoma
Test: NCI tumour cell line growth inhibition, 48 h
measure-name: TGI

Dear colleague, please send me the reported TGI for `C=CCn1c(=O)ccn(COCCO)c1=O` when you can. > 100 µM

Dear colleague, please send me the reported TGI for `O=c1c2cc3c(cc2[nH]c2ncccc12)OCO3` when you can. > 10 µM

Dear colleague, please send me the reported TGI for CCCNC(=O)CCC(C)[C@H]1CCC2C3C(C[C@H](OC(C)=O)[C@@]21C)[C@@]1(C)CCC2(C[C@H]1C[C@H]3OC(C)=O)OOC1(CCC(C)CC1)OO2 (some centres not stated) when you can. > 100 µM

Dear colleague, please send me the reported TGI for `CSc1c(C)c(C)nn1-c1ccccc1` when you can. > 100 µM

Dear colleague, please send me the reported TGI for `CC1=C2C(=O)c3ccccc3C2=C(C)S(=O)(=O)O1` when you can. > 10 µM

Dear colleague, please send me the reported TGI for `C[C@H](Cn1ncnn1)Nc1ncc2cc(Oc3ccc(F)cc3F)c(=O)n(C)c2n1` when you can. > 25 µM

Shift focus to the following entry.
Dear colleague, please send me the reported TGI for CC(CC(=O)Nc1ccc(NC(=O)CC(C)N=NC(N)=S)cc1)N=NC(N)=S (configuration not stated) when you can. > 100 µM

====

System: NCI-H23 lung
Experiment: NCI tumour cell line growth inhibition, 48 h
measure-name: TGI

Answer briefly: TGI recorded on NCI-H23 lung for O=C1C2=C(c3ccccc31)C(c1ccccc1Cl)N1C(=O)CCSC1=N2 (stereo not drawn) > 100 µM

Please look at the items below and tell me TGI for each one, in order.
1. c1ccc2c(c1)NC(C1OC3CCCN3C1C1Nc3ccccc3S1)S2 (stereo not drawn)
2. CCN(CC)CCOc1ccc(N2C(=O)c3cc(OC)c(OC)cc3C2=O)cc1

1: > 100 µM; 2: > 100 µM

====

Tested on: HOP-92 NSCLC
Experiment: NCI tumour cell line growth inhibition, 48 h
measure-name: TGI

Below: 4 compounds and their reported TGI.
Dear colleague, please send me the reported TGI for `Cc1ccccc1Nc1nc2c(s1)C(=O)c1ccccc1C2=O` when you can. 25.1 µM

Dear colleague, please send me the reported TGI for `O=c1oc(-c2ccc(O)c(O)c2)cc2cccc(O)c12` when you can. 43.4 µM

Dear colleague, please send me the reported TGI for `O=S(=O)(O)c1cc2ccc1/C=C\c1ccc(cc1S(=O)(=O)O)N=Nc1ccc(c(S(=O)(=O)O)c1)/C=C\c1ccc(cc1S(=O)(=O)O)N=N2` when you can. > 100 µM

Dear colleague, please send me the reported TGI for `CC(C)(C)NC(=O)/C(=C\Sc1ccccc1)c1ccc2c(c1)OCO2` when you can. 55.1 µM

Please look at the items below and tell me TGI for each one, in order.
1. COc1ccc(CC(O)CN2CCOCC2)cc1 (stereo not drawn)
2. CN(C)c1nc(=NCc2ccccc2)ss1
3. Cc1cn(C2OC(C)(CO)C(O)C2O)c(=O)[nH]c1=O (stereo not drawn)
4. O=c1ncccn1C1C=C(CO)C(O)C1O (stereo not drawn)
5. N#CCCN(CCC#N)c1ccc(/C=C2\N=C(c3ccccc3)N(c3ccc(Cl)cc3)C2=O)cc1
6. COc1cc(NS(C)(=O)=O)ccc1N1Cc2cnc3ccc4[nH]c(C)cc1c4c23
7. O=C1/C(=C\c2cccc(Oc3ccccc3)c2)S(=O)(=O)C(c2ccccc2)N1Cc1ccccc1 (stereo not drawn)
8. COC(=O)[C@]12CC[C@H]3CN(C(=O)OCc4ccccc4)[C@H]([C@H]31)[C@H](c1ccco1)N2S(=O)(=O)c1ccc(C)cc1

1: > 100 µM; 2: > 10 µM; 3: > 100 µM; 4: > 50 µM; 5: > 100 µM; 6: > 100 µM; 7: 73.3 µM; 8: 56.1 µM

Dear colleague, please send me the reported TGI for `CC(=O)[O-].CC(=O)[O-].CC(=O)[O-].CC(=O)[O-].[Mo+2].[Mo+2]` when you can. > 100 µM
